Recorded values, source paper PMC9954413.

study_target: T1, UbcH7 K96S (human, UniProt P68036 1-154, K96S)
T1 construct: human UbcH7 (UBE2L3) with K96S (KPA motif changed to SPA); also called mutant UbcH7; source: site-directed mutagenesis; expressed and purified as the wild type
assay_overview: ITC; 1-3 mM E2 in the syringe injected (2 uL, 15-19 injections) into 100-300 uM Arkadia polypeptide in the cell; 25 °C; 50 mM KH2PO4, 50 mM K2HPO4 pH 7; single-site model
settings: both partners purified
readout_name: Kd (µM)
Give the quantity in µM, number only.

Kd reading for Arkadia (RNF111) RING, residues 927-994 (Ark RING, 68 aa) (domain or fragment, human, UniProt Q6ZNA4 927-994, looked up, human Arkadia (RNF111), residues 927-994, 68 aa; also called wt Ark RING; source: expressed and purified as described elsewhere [31]) KQDGEEGTEEDTEEKCTICLSILEEGEDVRRLPCMHLFHQVCVDQWLITNKKCPICRVDIEAQLPSES : 10.2
